# assay-system: Nuclear factor NF-kappa-B complex (Homo sapiens) (UniProt Q00653+P19838+Q04206)
# Sequence (P19838 whole entry, looked up): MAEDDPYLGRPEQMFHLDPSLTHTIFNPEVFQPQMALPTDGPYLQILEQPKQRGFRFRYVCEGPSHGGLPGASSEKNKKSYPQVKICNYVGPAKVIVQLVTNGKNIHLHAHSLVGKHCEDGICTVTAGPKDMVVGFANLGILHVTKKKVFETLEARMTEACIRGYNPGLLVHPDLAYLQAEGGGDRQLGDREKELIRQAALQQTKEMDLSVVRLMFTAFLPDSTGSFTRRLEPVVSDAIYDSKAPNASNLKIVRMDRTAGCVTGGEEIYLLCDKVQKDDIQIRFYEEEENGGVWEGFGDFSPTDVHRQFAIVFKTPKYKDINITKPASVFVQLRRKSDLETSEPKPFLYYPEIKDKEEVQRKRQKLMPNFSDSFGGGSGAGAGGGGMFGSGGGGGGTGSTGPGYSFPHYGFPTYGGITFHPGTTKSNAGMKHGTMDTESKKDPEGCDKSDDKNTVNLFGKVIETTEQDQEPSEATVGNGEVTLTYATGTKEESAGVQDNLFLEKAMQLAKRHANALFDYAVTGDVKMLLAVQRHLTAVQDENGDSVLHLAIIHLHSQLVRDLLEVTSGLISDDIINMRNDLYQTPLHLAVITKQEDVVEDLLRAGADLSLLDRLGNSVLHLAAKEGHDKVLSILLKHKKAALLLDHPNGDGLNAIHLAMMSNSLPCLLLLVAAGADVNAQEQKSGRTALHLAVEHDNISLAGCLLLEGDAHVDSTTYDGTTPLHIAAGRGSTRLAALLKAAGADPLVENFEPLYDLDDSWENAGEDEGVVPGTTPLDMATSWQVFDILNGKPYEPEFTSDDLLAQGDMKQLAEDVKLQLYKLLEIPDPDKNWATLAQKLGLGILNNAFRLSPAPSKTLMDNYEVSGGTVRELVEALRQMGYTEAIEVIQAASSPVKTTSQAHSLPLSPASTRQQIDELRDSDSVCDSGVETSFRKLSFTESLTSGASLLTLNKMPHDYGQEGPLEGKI
# Sequence (Q00653 whole entry, looked up): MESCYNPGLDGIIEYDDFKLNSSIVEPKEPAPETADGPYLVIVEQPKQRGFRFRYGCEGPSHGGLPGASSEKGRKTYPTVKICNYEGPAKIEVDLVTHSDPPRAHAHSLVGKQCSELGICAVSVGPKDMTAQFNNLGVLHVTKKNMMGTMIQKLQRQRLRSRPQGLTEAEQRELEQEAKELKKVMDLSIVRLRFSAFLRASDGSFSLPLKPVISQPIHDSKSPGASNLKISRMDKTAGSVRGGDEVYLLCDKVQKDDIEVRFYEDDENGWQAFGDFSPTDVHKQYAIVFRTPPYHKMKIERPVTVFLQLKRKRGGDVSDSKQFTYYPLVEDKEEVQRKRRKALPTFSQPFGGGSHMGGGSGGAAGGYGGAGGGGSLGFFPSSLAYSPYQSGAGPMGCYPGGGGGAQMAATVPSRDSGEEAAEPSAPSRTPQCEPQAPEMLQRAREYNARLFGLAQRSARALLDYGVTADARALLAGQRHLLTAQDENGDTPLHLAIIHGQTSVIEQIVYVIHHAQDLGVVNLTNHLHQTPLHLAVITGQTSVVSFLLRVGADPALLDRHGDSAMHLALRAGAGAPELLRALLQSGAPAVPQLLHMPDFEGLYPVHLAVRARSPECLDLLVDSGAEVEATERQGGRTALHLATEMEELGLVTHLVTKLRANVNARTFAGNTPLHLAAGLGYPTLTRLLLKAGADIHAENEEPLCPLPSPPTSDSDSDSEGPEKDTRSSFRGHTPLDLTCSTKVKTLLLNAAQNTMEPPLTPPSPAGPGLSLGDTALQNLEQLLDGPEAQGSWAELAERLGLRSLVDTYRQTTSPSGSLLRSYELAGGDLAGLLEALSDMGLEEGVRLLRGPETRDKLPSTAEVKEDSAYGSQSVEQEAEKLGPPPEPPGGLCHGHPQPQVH
# Sequence (Q04206 whole entry, looked up): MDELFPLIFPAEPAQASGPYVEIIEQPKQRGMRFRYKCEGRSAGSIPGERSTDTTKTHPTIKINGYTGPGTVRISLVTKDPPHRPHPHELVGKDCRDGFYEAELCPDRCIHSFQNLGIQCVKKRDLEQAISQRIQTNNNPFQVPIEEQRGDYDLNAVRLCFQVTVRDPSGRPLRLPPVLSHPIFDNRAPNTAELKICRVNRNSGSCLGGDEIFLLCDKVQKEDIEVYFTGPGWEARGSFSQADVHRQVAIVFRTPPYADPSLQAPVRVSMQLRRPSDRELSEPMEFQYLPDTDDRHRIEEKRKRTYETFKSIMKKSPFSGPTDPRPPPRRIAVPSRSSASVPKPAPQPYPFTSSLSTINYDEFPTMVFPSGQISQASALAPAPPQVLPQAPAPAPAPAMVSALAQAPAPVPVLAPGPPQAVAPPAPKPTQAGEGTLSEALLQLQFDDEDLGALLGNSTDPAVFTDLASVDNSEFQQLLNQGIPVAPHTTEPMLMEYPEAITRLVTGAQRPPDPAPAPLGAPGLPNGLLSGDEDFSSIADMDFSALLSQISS
# test-description: Inhibition of TNFalpha activated NF-kappaB mediated transactivation of HIV-1 LTR Luc in 5.1 cells at 100 uM
# Format: functional, cell-based
value-type: inhibition (%)

compound	reported-result
CC(C)(C)n1nc(Cc2ccc(Cl)cc2)c2ccccc2c1=O	82.1
COc1cc(Cc2nnc(O)c3ccccc23)cc(OC)c1OC	96.5
OC1(Cc2ccccc2Cl)c2ccccc2C2=NCCCN21 (configuration not stated)	99.7
Cn1nc(Cc2ccccc2Cl)c2ccccc2c1=O	73
CCCCn1nc(Cc2ccc(OC)c(OC)c2)c2ccccc2c1=O	83

[P] C=CCn1nc(Cc2ccc(OC)cc2)c2ccccc2c1=O
[Q] Cn1nc(Cc2ccccc2)c2ccccc2c1=O
[R] CCn1nc(Cc2ccc(OC)cc2)c2ccccc2c1=O
Q: Order these by inhibition, descending, and give the full ranking. Could you list the labels in the order requested?
A: R, P, Q
(R: 93.5%, P: 50%, Q: 19.4%)

[1] Oc1nnc(Cc2ccc(Cl)c(Cl)c2)c2cc(Cl)c(Cl)cc12
[2] Cn1nc(Cc2ccc3ccccc3c2)c2ccccc2c1=O
Q: Recorded inhibition values differ for 1 and 2 ; which one is higher? Answer format: the label of the selected item.
A: 2

----------
# assay-system: Nuclear factor NF-kappa-B complex (Homo sapiens) (UniProt Q00653+P19838+Q04206)
# test-description: Inhibition of TNFalpha activated NF-kappaB mediated transactivation of HIV-1 LTR Luc in 5.1 cells at 100 uM
# Format: functional, cell-based
value-type: inhibition (%)

Some compounds with recorded inhibition:
compound	inhibition / %
Oc1nnc(Cc2ccccc2Cl)c2ccccc12	67.3
CSc1ccc(CC2(O)c3ccccc3C3=NCCCN32)cc1 (configuration not stated)	99.8
OC1(Cc2ccccc2Cl)c2cc(Cl)c(Cl)cc2C2=NCCN21 (configuration not stated)	100
Oc1nnc(Cc2ccc(Cl)cc2Cl)c2ccccc12	99
Cn1nc(Cc2ccc3c(c2)OCO3)c2ccccc2c1=O	97.2

[I] O=C1O/C(=C\c2ccc(Cl)cc2)c2ccccc21
[II] O=C1O/C(=C\c2ccc(Cl)cc2)c2cc(Cl)c(Cl)cc21
Q: Recorded inhibition values differ for I and II ; which one is higher? Answer format: the label of the selected item.
A: I
(I: 84.8%, II: 3.2%)

[I] OC1(Cc2ccc3ccccc3c2)c2ccccc2C2=NCCCN21 (configuration not stated)
[II] Oc1nnc(Cc2ccccc2Cl)c2cc(Cl)c(Cl)cc12
Q: Parameter metric = inhibition. Return the lower-valued option from I and II . Answer format: the label of the selected item.
A: II
(II: 65.9%, I: 100%)

----------
# assay-system: Nuclear factor NF-kappa-B complex (Homo sapiens) (UniProt Q00653+P19838+Q04206)
# test-description: Inhibition of TNFalpha activated NF-kappaB mediated transactivation of HIV-1 LTR Luc in 5.1 cells at 100 uM
# Type: functional, cell-based
The reader will find reported inhibition values listed item by item below.

compound	assay-system	value-type	reported-result
OC1(Cc2ccc(Cl)cc2Cl)c2ccccc2C2=NCCN21 (stereo not drawn)	Nuclear factor NF-kappa-B complex (Homo sapiens) (UniProt Q00653+P19838+Q04206)	inhibition	< 0%

Q: Item O=C1O/C(=C\c2ccccc2Cl)c2ccccc21 (stereo in doubt; 1b) has what recorded inhibition?
A: < 0%

Q: Item O=c1c2ccccc2c(Cc2ccc(Cl)cc2)nn1-c1ccc(Br)cc1 has what recorded inhibition?
A: < 0%
